Where these numbers come from: patent US20230357447A1

# target system: T1, Anti-CD28 scFv (VH-linker 1-VL) (biotinylated (site not stated))
# T1 construct: biotinylated and captured on neutravidin coated plates in the phage ELISA
# T1 sequence (scFv, as listed by the source): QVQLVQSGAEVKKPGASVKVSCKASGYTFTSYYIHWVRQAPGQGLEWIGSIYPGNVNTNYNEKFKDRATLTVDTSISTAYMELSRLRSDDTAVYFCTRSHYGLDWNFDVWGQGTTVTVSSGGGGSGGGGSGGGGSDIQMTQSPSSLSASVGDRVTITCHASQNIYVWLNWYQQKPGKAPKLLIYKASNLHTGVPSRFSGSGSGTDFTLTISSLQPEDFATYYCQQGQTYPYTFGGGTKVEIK
# experiment summary: phage binding ELISA on captured anti-CD28 scFv, wells pre-incubated with soluble CD28 (competitor);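 also: crude clonal phage supernatants added without washing, bound phage detected by HRP-conjugated anti-M13 antibody, control wells held blocking buffer alone instead of CD28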
Assign CD28 scFv signal in presence of CD28 to each entry below.

Could you report CD28 scFv signal in presence of CD28 for every entry in the following list?
1. MDWCPKPLWHVCFA [Phage-337]
2. LDWCPRHLWALCFN [Phage-349]
3. MAWCPLDLWDKCFY [Phage-374]
4. MDFCPRFLWHECFN [Phage-345]

1: 0.152; 2: 0.24; 3: 0.141; 4: 0.225

Could you report CD28 scFv signal in presence of CD28 for every entry in the following list?
1. MDWCPRYLWVDCFA [Phage-372]
2. MDWCPRILWSDCFN [Phage-373]
3. MDWCPRYLWLECFN [Phage-354]

[0.218, 0.113, 0.368]

Name the reported CD28 scFv signal in presence of CD28 value associated with the binder MDWCPSYLWPVCFN [Phage-365]
0.131
